assay: NCI Yeast Anticancer Drug Screen. Data for the sgs1 mgt1 strain (AID 161);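 note: 0% = growth of cultures given vehicle only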; conditions: S. cerevisiae sgs1 mgt1 strain, at 50.0 µM, active compounds read high
This is part of a sample that, as a whole, favours compounds with a hit. Of some 79,000 tested, about 15% had one in any assay.
Measured property: growth inhibition (%)
Give the value, in units of %, as a plain number.

Consider the worked cases shown below.
CCCCN1C(=O)C(=O)N(CCc2ccc(OC)c(OC)c2)C1=O : 11.9
Cc1ccc(SC(F)(F)C(F)C(F)(F)F)cc1 (centres undefined) : -7.75
c1ccc2c(c1)ncc1cccn12 : 0.65
CCOC(=O)/C(Cl)=C1\SN(C(=O)OCC)N=C1C : -11.4
COc1ccc(/C(Cl)=C(\C=N/O)c2ccc(OC)c(OC)c2)cc1OC : -0.7
CCCCNC(=O)CCC(NS(=O)(=O)c1ccc(C)cc1)C(=O)NCCCC (centres undefined) : -9
O=C(Nc1ccc2c(c1)OCO2)O/N=C\c1ccccn1 : 17.7
Cc1ccc(NC(=O)CC2Sc3ccccc3NC2=O)c(C)c1 (centres undefined) : 7.5
Cn1c(=O)ccc2c1nc1ccccc1[n+]2[O-] : -6.7
COC(=O)/C(=C/c1ccc(OC)cc1)C(C(=O)O)=C1CCCCC1 : 7.35

Query: Fill in the blank: the reported growth inhibition of NCC(=O)NCC(=O)NCC(=O)NCC(=O)NCC(=O)NCC(=O)O is ____.
Result: 0.4

Query: Fill in the blank: the reported growth inhibition of CS1(C)=NC(=O)C2=C(N=1)c1ccccc1S2(=O)=O is ____.
Result: -19

Query: Fill in the blank: the reported growth inhibition of CC1(C)OC(=O)CC2(C)OC12 (centres undefined) is ____.
Result: -11.2

Query: Fill in the blank: the reported growth inhibition of COC1OC(CN)C(O)C(O)C1O (centres undefined) is ____.
Result: 2.35

Query: Fill in the blank: the reported growth inhibition of CCC(=O)C(CC)Cc1ccc(OC)c(OC)c1 (centres undefined) is ____.
Result: -11.8

Query: Fill in the blank: the reported growth inhibition of O=C(/C=C\c1ccccc1)C(C(=O)/C=C/c1ccccc1)C(=O)c1ccccc1 (centres undefined) is ____.
Result: 3.15
